Reported Metric: melting point

Example entries and their recorded answers appear below.
Compound: CN/C(=C1/Sc2ccccc2C1=O)c1ccccc1
Val: 154 to 155 °C
--
Compound: Cc1ccccc1N1CC(=O)N(C)C(=O)N1
Val: 147 to 148 °C
--
Compound: O=C1N(Cc2noc(C(F)(F)F)n2)c2ccccc2C12COc1cc3c(cc12)OCO3 (stereo unspecified)
Val: 139 to 140 °C
--
Compound: CCC(=NNC(=O)C1CC1C)c1cccnc1 (stereo unspecified)
Val: 137 °C
--
Compound: Nc1ccccc1C(=O)NCCCCn1ccnc1
Val: 91 to 93 °C
--
Compound: ClC1=Nc2ccccc2Oc2ccccc21
Val: 53 to 55 °C

Would you mind telling me what melting point value was observed for Cc1cccc(C(=O)c2[nH]c3cc(Cl)ccc3c2N)c1 ? 80 to 88 °C

Okay, and COc1cc2c(=O)c(OS(C)(=O)=O)cn(C)c2cc1OC ? 216 to 217 °C

Record: COc1ccc(-n2nc(C(=O)O)c3c2CCCC3)cc1 233 to 234 °C

Consider next the compound CCc1nnc2n1-c1ccc(Cl)cc1C(c1ccccc1)=NC2 in the same way. 229 to 230 °C

Also C=C(C)C(=O)NC(=O)Nc1ccccc1 , if possible. 165 to 166 °C

###

Recorded melting point for the following compounds

Worked set:
Compound: O=c1c(I)c(OCc2ccc(F)cc2F)ccn1Cc1cccc(F)c1
melting point: 164 to 167 °C
--
Compound: Fc1cccc(CC[C@H]2CNCCN2)c1
melting point: 95 to 99 °C
--
Compound: Clc1nc(Cl)c2ncn(C3CC3)c2n1
melting point: 121 to 124 °C
--
Compound: CCN1CCN(c2nc(-c3ccc(OCCO)cc3OC)cc3ccccc23)CC1
melting point: 140 to 142 °C
--
Compound: NC(=O)NC[C@@H]1CCCc2cc(S(=O)(=O)c3cccc(F)c3)cc(F)c21
melting point: 194 °C

So what does the record say about melting point for NS(=O)(=O)c1ccc(N2CCN(CCCC3OCCc4ccccc43)CC2)cc1 (racemic) ? 177 to 178 °C

Try O=c1[nH][nH]c(=O)c2c(O)c(-c3ccccc3)ncc12 next. > 300 °C

What do you have for O=C(O)c1cc(S(=O)(=O)O)c2cccnc2c1O ? 289 to 291 °C

Follow-up entry: COC(=O)c1ccc2c(C)csc2c1 46 to 47 °C

What do we get for O=c1[nH]c2cc(C(F)(F)F)ccc2n(CCn2ncnn2)c1=O ? 280 °C

Try this compound next: CC1=C(C(=O)c2ccc3c(c2)CN(C(N)=O)CC3)C(C)(C)CCC1 92.5 to 93.6 °C

Thanks! And CCOC(=O)N(CCCOCCOCCCN(C(=O)OCC)C1CC(C)(C)NC(C)(C)C1)C1CC(C)(C)NC(C)(C)C1 ? 92 to 93 °C

Now the compound Cn1c2c(c3cc(F)ccc31)C(=O)NCC2 200 to 202 °C

And CNC(=NC#N)NCCSCc1ccc(CN)o1 ? 80 to 82 °C

Please answer likewise for CCCc1c(OCCCOc2ccc3c(=O)cc(C(=O)OC)oc3c2CCC)ccc(C(C)=O)c1O 113 to 115 °C

Try this compound next: CCOC(=O)c1nn(C(=O)Nc2ccccc2)c(C)c1C 139 to 140 °C

Okay, and Cc1[nH]n(Cc2ccc(C(N)=O)cc2)c2nc(-c3ccncc3)nc(=O)c1-2 ? > 300 °C

Also check CCOC(=O)COc1cc(-n2nc(C)c(Cl)c2C)c(F)cc1Cl 101 to 104 °C

Moving on to the next compound: COC(=O)c1ccccc1-c1ncc(-c2cccc(C(F)(F)F)c2)o1 92.5 to 94 °C

Here is the next compound: Cc1ccc(S(=O)(=O)O[C@@H]2C[C@@H](C(=O)NC(C)(C)C)N(C(=O)OC(C)(C)C)C2)cc1 125 to 127 °C

Let us now turn to CCOC(=O)c1cc(-c2ccc(OCc3ccccc3)cc2)n[nH]1 160 to 170 °C
